Attribution: the supplement of paper PMC6755084

B1: F1*; the commonest letter at each place (parent)
chain: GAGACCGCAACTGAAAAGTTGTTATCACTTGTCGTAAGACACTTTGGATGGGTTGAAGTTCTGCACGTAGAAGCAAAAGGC

Variants of: B1
ASSAY: fraction ligated after 30 min (ligated reads / total reads); higher = more ligase activity
CONDITION DESCRIPTION: with F1*sub RNA substrate (template-directed ligation), 42 °C
The reader will find reported fraction ligated values listed item by item below.
Simply state the number, no unit and no words.

Need fraction ligated of GAGACCGCAACTGAAAAGTTGTTATTACTTGTCGTAAGAGACTTTGGATGGGTTGAAGTTCTGCACGTAGAAGCAAAAGGC , thanks. 0.817

Another variant: GAGACCGCAACTGAAAAGTTGTTATCACTTGTCGTAAGACTCTTTCGATGGGTTGAAGTTCTGCACGTAGAAGCAAAAGGC 0.792

Another variant: GAGACCGCAACTGAAAAGTTGTTATCGCTTGTCGTAAGACACTTTGGATGGGTTGAGGTTCTGCACGTAGAAGCAAAAGGC 0.819

Another variant: GAGACCGCAACTGAAAAGTTGTTATCGCTTGTCGTCAGACACTTTGGATGGGTTGAAGTTCTGCACGTAGAAGCAAAAGGC 0.822

Another variant: GAGACCGCAACTGAAAAGTTGTTATCACTCGTCGTAAGACACTATGGATGGGTTGAAGTTCTGCACGTAGAAGCAAAAGGC 0.807

Another variant: GAGACCGCAACTGAAAAGTTGTTATCACTTGTCGTACGACACTTTCGATGGGTTGAAGTTCTGCACGTAGAAGCAAAAGGC 0.795

Another variant: GAGACCGCAACTGAAAAGTTGTTATGACTTGTCGTAAGACACTTTGAATGGGTTGAAGTTCTGCACGTAGAAGCAAAAGGC 0.8

Another variant: GAGACCGCAACTGAAAAGTTGTTATCACTTGTCGTAAGGCACTTTTGATGGGTTGAAGTTCTGCACGTAGAAGCAAAAGGC 0.783

Another variant: GAGACCGCAACTGAAAAGTTGTTATCACATGTCGTAAGACACTTTGGATGGGTTGACGTTCTGCACGTAGAAGCAAAAGGC 0.818

Another variant: GAGACCGCAACTGAAAAGTTGTTATCACTAGTCGTAAGACCCTTTGGATGGGTTGAAGTTCTGCACGTAGAAGCAAAAGGC 0.797

Another variant: GAGACCGCAACTGAAAAGTTGTGATCACCTGTCGTAAGACACTTTGGATGGGTTGAAGTTCTGCACGTAGAAGCAAAAGGC 0.784

Another variant: GAGACCGCAACTGAAAAGTTGTTATCACTTGTCGTAACACACCTTGGATGGGTTGAAGTTCTGCACGTAGAAGCAAAAGGC 0.822

Another variant: GAGACCGCAACTGAAAAGTTGTTATCACTTCACGTAAGACACTTTGGATGGGTTGAAGTTCTGCACGTAGAAGCAAAAGGC 0.803
